Readings of MFI for the listed binders
MEASURED TARGET: T1, human interleukin 1 receptor accessory protein, membrane-bound form on cells (human, UniProt Q9NPH3 21-570)
T1 construct: On IL1-RAP-transfected 293 cells, AML cell lines (EOL-1, HNT-34, OCI-AML2, OCI-AML3), primary AML cells and HEK-Blue IL-1β cells; also called IL1-RAP; receptor IL1-RAP
T1 sequence: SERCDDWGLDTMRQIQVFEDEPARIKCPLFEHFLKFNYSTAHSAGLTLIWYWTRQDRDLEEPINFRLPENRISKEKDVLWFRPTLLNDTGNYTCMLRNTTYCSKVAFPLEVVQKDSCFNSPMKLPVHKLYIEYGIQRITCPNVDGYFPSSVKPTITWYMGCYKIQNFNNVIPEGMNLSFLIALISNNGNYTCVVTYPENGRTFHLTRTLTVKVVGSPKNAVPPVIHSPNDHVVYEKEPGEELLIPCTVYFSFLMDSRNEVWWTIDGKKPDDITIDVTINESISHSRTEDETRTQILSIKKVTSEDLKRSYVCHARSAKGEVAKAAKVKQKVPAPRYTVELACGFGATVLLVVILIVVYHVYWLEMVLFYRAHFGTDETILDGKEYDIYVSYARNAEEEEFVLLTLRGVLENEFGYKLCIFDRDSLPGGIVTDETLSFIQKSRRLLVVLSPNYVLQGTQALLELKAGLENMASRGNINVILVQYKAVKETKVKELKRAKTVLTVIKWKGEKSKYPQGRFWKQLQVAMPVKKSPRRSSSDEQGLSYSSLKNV
EXPERIMENT DESCRIPTION: FACS on EOL-1 cells, FITC; antibody concentration not given
Form field (numeric): enter value without unit.

BINDER	VALUE MEASURED
humanized clone of 54.9D7 hH1L3 (antibody, V domains shown, Humanized; also called 54.9D7 H1L3) VH: QVQLVQSGAEVKKPGASVKVSCKASGYIFITYWMNWVRQAPGQGLEWMGQIFPASGTTYYAQKFQGRVTMTRDTSTSTVYMELSSLRSEDTAVYYCARTDFYRYDGGYALDYWGQGTLVTVSS VL: DIQLTQSPSSLSASVGDRATITCRASQSVSTSGYSSMHWYQQKPGKAPKLLIKYASDLESGVPSRFSGSGSGTDFTLTISSVQPEDFATYYCHHSWGIPMYTFGQGTKLEIKR	100
humanized clone of 54.9D7 hH3L3 (antibody, V domains shown, Humanized; also called 54.9D7 H3L3) VH: QVQLVQSGAEVKKPGASVKLSCKASGYIFITYWMNWVRQAPGQGLEWVGQIFPASGTTYYAQKFQGRATLTVDTSTSTAYMELSSLRSEDTAVYYCARTDFYRYDGGYALDYWGQGTLLTVSS VL: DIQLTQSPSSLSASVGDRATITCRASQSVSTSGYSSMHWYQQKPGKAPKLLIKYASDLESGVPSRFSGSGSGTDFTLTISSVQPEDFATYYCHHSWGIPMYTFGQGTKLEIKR	94.3
humanized clone of 54.9D7 hH2L3 (antibody, V domains shown, Humanized; also called 54.9D7 H2L3) VH: QVQLVQSGAEVKKPGASVKVSCKASGYIFITYWMNWVRQAPGQGLEWVGQIFPASGTTYYAQKFQGRVTMTVDTSTSTVYMELSSLRSEDTAVYYCARTDFYRYDGGYALDYWGQGTLVTVSS VL: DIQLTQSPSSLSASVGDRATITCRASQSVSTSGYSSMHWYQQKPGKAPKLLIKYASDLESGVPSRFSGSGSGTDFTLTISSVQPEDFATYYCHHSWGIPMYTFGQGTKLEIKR	124

Prompt: For the binder h54.9D7 HC1 / Chi54.9D7 LC#1 (antibody, V domains shown, also called humanized 54.9D7 HC1 with the chimeric light chain) VH: QVQLVQSGAEVKKPGASVKVSCKASGYIFITYWMNWVRQAPGQGLEWMGQIFPASGTTYYAQKFQGRVTMTRDTSTSTVYMELSSLRSEDTAVYYCARTDFYRYDGGYALDYWGQGTLVTVSS VL: DIVLTQSPISLAVFLGQRATISCRASQSVSTSGYSSMHWYQQKAGQPPKLLIKYASDLESGVPVRFSGSGSGTDFILNIHPVEVEDIATYYCHHSWGIPMYTFGGGTKLEIKR , give its reported MFI.
Response: 21.3

Prompt: For the binder h54.9D7 HC3 / Chi54.9D7 LC#1 (antibody, V domains shown, also called humanized 54.9D7 HC3 with the chimeric light chain) VH: QVQLVQSGAEVKKPGASVKLSCKASGYIFITYWMNWVRQAPGQGLEWVGQIFPASGTTYYAQKFQGRATLTVDTSTSTAYMELSSLRSEDTAVYYCARTDFYRYDGGYALDYWGQGTLLTVSS VL: DIVLTQSPISLAVFLGQRATISCRASQSVSTSGYSSMHWYQQKAGQPPKLLIKYASDLESGVPVRFSGSGSGTDFILNIHPVEVEDIATYYCHHSWGIPMYTFGGGTKLEIKR , give its reported MFI.
Response: 20

Where do the numbers come from? From patent US20190338038A1.
